Assay: AUClast in male Sprague-Dawley rat at 24.4 micromol/kg, IG administered as single dose and measured upto 24 hrs by LC-MS/MS analysis
Assay type: ADME
Settings: in vivo, po, dose 24.4 µmol/kg
Entries and their AUC(0-t) at 24 h values follow.

[
  {
    "MOLECULE": "C[C@@]1(O)CC[C@H]2[C@H](CC[C@@H]3[C@@H]2CC[C@]2(C)[C@@H](C(=O)Cn4cnn(-c5cc(F)nc(F)c5)c4=O)CC[C@@H]32)C1",
    "AUC(0-t) at 24 h, µM·h": 24
  },
  {
    "MOLECULE": "C[C@@]1(O)CC[C@H]2[C@H](CC[C@@H]3[C@@H]2CC[C@]2(C)[C@@H](C(=O)Cn4cc(C#N)cn4)CC[C@@H]32)C1 [ZURANOLONE]",
    "AUC(0-t) at 24 h, µM·h": 12
  }
]

* * *

Entries and their IC50 values follow.
Molecular target: Cytochrome P450 2B6 (Homo sapiens, UniProt P20813)
Sequence (P20813 whole entry): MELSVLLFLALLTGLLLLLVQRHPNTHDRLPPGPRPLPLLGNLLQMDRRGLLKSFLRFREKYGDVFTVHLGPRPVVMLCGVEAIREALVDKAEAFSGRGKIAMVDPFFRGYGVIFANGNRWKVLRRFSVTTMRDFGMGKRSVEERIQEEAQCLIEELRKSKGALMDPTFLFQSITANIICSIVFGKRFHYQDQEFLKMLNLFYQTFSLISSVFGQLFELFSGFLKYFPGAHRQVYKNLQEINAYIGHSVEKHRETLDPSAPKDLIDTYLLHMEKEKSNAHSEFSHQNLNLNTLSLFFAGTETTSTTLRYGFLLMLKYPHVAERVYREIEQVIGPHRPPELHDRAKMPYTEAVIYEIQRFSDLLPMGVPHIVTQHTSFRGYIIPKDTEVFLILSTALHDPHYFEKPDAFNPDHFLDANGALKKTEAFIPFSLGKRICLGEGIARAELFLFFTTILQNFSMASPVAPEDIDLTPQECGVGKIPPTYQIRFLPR

[
  {
    "MOLECULE": "C[C@@]1(O)CC[C@H]2[C@H](CC[C@@H]3[C@@H]2CC[C@]2(C)[C@@H](C(=O)Cn4cnn(-c5cc(F)nc(F)c5)c4=O)CC[C@@H]32)C1",
    "SYSTEM_UNDER_TEST": "Cytochrome P450 2B6 (Homo sapiens, UniProt P20813)",
    "IC50": "> 30 µM"
  },
  {
    "MOLECULE": "C[C@@]1(O)CC[C@H]2[C@H](CC[C@@H]3[C@@H]2CC[C@]2(C)[C@@H](C(=O)Cn4cc(C#N)cn4)CC[C@@H]32)C1 [ZURANOLONE]",
    "SYSTEM_UNDER_TEST": "Cytochrome P450 2B6 (Homo sapiens, UniProt P20813)",
    "IC50": "> 30 µM"
  }
]

* * *

Target: Gamma-aminobutyric acid receptor subunit alpha-4/beta3/delta (Homo sapiens, UniProt O14764+P28472+P48169)
Sequence (P28472 whole entry): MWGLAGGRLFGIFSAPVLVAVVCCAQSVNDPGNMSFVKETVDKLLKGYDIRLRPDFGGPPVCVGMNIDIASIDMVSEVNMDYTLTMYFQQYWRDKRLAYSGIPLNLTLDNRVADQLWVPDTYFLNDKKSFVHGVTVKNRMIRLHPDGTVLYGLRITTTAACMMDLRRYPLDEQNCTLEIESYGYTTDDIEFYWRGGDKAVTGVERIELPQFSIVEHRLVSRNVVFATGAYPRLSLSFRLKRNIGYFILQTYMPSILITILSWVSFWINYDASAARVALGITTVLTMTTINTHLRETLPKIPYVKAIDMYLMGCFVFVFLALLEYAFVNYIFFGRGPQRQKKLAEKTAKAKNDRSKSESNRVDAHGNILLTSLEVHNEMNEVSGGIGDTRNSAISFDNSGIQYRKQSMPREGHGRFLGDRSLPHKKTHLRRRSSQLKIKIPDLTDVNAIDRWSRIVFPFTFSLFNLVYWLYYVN
Sequence (P48169 whole entry): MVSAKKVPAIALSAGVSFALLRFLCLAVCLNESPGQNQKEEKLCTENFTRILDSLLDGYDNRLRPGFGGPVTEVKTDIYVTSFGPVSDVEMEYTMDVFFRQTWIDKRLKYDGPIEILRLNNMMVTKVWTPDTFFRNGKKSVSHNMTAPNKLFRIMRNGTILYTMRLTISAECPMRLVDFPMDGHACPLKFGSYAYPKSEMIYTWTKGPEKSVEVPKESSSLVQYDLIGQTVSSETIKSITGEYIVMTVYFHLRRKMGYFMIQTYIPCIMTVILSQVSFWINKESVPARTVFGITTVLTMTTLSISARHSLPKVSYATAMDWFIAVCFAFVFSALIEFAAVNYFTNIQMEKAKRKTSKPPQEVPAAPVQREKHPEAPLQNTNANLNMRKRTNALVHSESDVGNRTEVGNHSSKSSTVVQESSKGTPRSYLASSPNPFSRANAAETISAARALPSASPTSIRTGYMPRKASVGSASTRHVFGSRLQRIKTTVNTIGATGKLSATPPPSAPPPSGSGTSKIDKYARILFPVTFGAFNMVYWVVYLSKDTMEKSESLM
Sequence (O14764 whole entry): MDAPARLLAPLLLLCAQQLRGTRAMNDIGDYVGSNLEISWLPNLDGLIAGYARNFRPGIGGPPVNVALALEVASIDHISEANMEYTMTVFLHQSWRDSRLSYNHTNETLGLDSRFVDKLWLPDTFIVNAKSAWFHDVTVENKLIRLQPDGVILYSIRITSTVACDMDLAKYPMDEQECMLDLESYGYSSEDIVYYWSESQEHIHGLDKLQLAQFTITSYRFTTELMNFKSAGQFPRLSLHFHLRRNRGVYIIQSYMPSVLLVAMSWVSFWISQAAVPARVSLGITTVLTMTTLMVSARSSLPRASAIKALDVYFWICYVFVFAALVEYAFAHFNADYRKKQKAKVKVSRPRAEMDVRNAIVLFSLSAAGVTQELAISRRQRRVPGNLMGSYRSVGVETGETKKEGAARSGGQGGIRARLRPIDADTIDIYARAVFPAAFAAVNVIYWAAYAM
Assay: Positive allosteric modulation of extrasynaptic alpha4beta3delta GABA-A receptor (unknown origin) transfected in CHO cells assessed as potentiation of GABA-induced peak current amplitude at -80 mV holding potential preincubated for 30 secs followed by GABA stimulation for 2 secs by manual patch assay

[
  {
    "STRUCTURE_AS_SMILES": "C[C@@]1(O)CC[C@H]2[C@H](CC[C@@H]3[C@@H]2CC[C@]2(C)[C@@H](C(=O)Cn4cnn(-c5cccc(F)n5)c4=O)CC[C@@H]32)C1",
    "EC50 [nM]": 360
  },
  {
    "STRUCTURE_AS_SMILES": "Cn1ncn(CC(=O)[C@H]2CC[C@H]3[C@@H]4CC[C@@H]5C[C@](C)(O)CC[C@@H]5[C@H]4CC[C@]23C)c1=O",
    "EC50 [nM]": 305
  },
  {
    "STRUCTURE_AS_SMILES": "C[C@@]1(O)CC[C@H]2[C@H](CC[C@@H]3[C@@H]2CC[C@]2(C)[C@@H](C(=O)Cn4ncn(-c5cccc(F)c5)c4=O)CC[C@@H]32)C1",
    "EC50 [nM]": 112
  },
  {
    "STRUCTURE_AS_SMILES": "C[C@@]1(O)CC[C@H]2[C@H](CC[C@@H]3[C@@H]2CC[C@]2(C)[C@@H](C(=O)Cn4cnn(-c5ccccc5F)c4=O)CC[C@@H]32)C1",
    "EC50 [nM]": 107
  },
  {
    "STRUCTURE_AS_SMILES": "C[C@@]1(O)CC[C@H]2[C@H](CC[C@@H]3[C@@H]2CC[C@]2(C)[C@@H](C(=O)Cn4cnn(-c5nccs5)c4=O)CC[C@@H]32)C1",
    "EC50 [nM]": 126
  },
  {
    "STRUCTURE_AS_SMILES": "CCn1ncn(CC(=O)[C@H]2CC[C@H]3[C@@H]4CC[C@@H]5C[C@](C)(O)CC[C@@H]5[C@H]4CC[C@]23C)c1=O",
    "EC50 [nM]": 270
  }
]
